Listing of recorded Ki by entry.
Biological target: A2 receptors from rat striatal membranes (Rattus norvegicus)
Construct: Rat cerebral cortical and striatal membranes were prepared; from tissue; host or cells: rat striatal membranes
Sequence (P30543 whole entry): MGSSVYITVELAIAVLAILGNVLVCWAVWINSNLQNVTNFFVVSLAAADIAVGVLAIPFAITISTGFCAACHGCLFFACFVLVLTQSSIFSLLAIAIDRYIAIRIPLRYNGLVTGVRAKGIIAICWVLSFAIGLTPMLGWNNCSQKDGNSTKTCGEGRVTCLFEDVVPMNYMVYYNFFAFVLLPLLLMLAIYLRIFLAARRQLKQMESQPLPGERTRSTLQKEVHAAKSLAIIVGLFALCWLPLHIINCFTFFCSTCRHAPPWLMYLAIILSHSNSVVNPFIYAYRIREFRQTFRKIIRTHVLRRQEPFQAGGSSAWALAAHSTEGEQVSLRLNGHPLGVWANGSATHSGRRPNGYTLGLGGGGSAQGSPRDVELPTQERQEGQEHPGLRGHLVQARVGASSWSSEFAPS
Test: Radioligand binding at A2 (A2a) receptors, displacement of [3H]CGS 21680 (or [3H]NECA with 50 nM CPA) from rat striatal membranes
Conditions: rat striatal membranes, displacement of [3H]CGS 21680 (or [3H]NECA + 50 nM CPA); read-out: A2 affinity Ki
Recorded Metric: Ki

>>> value_measured("CCNC(=O)[C@H]1O[C@@H](n2cnc3c(N)[n+]([O-])cnc32)[C@H](O)[C@@H]1O [Compound 35, adenosine-5'-N-ethyluronamide-N^1-oxide]")
"0.101 µM"
>>> value_measured("CCNC(=O)[C@H]1O[C@@H](n2cnc3c(NCc4ccccc4OC)ncnc32)[C@H](O)[C@@H]1O")
"0.021 µM"
>>> value_measured("CCCCn1c(=O)c2c(ncn2[C@@H]2O[C@H](C(N)=O)[C@@H](O)[C@H]2O)n(CCCC)c1=O")
"59.2 µM"
>>> value_measured("CCNC(=O)[C@H]1O[C@@H](n2cnc3c(NCc4ccccc4)ncnc32)[C@H](O)[C@@H]1O [Compound 28, N^6-benzyladenosine-5'-N-ethyluronamide]")
"0.0953 µM"
>>> value_measured("CNC(=O)[C@H]1O[C@@H](n2cnc3c(NCc4ccc(Br)cc4)ncnc32)[C@H](O)[C@@H]1O")
"2.46 µM"
>>> value_measured("O=C(NC1CC1)[C@H]1O[C@@H](n2cnc3c(NCc4ccccc4)ncnc32)[C@H](O)[C@@H]1O")
"0.055 µM"
>>> value_measured("CCNC(=O)[C@H]1O[C@@H](n2cnc3c(NCc4cccc(C)c4)ncnc32)[C@H](O)[C@@H]1O")
"0.0177 µM"
>>> value_measured("CCCCn1c(=O)c2c(ncn2[C@@H]2O[C@H](CO)[C@@H](O)[C@H]2O)n(CCCC)c1=O")
"19.5 µM"
>>> value_measured("Nc1ncnc2c1nc(Br)n2[C@@H]1O[C@H](CO)[C@@H](O)[C@H]1O [Compound 31, 8-bromoadenosine, reference compound]")
"22.7 µM"
>>> value_measured("CCNC(=O)[C@H]1O[C@@H](n2cnc3c(NCc4cccc(OC)c4)ncnc32)[C@H](O)[C@@H]1O")
"0.038 µM"
>>> value_measured("Nc1c2ncn([C@@H]3O[C@H](CO)[C@@H](O)[C@H]3O)c2nc[n+]1[O-] [Compound 34, adenosine-N^1 -oxide, reference compound]")
"0.328 µM"
>>> value_measured("[O-][n+]1cnc2c(ncn2[C@@H]2O[C@H](CO)[C@@H](O)[C@H]2O)c1NCc1ccccc1 [Compound 36, N^6 -benzyladenosine-N^1 -oxide]")
"8.53 µM"
>>> value_measured("CC(C)CSC[C@H]1O[C@@H](n2cnc3c(N)ncnc32)[C@H](O)[C@@H]1O [Compound 76, 5'-deoxy-5'-isobutylthio adenosine, reference compound]")
"6.89 µM"
>>> value_measured("CNC(=O)[C@H]1O[C@@H](n2cnc3c(NCc4cccc(Br)c4)ncnc32)[C@H](O)[C@@H]1O")
"0.064 µM"
>>> value_measured("CCNC(=O)[C@H]1O[C@@H](n2cnc3c(N[C@@H](C)c4ccccc4)ncnc32)[C@H](O)[C@@H]1O [Compound 56, N^6 -(S-phenylethyl)-NECA]")
"1.65 µM"
>>> value_measured("C[C@H]1O[C@@H](n2cnc3c(N)ncnc32)[C@H](O)[C@@H]1O [Compound 73, 5'-deoxyadenosine, reference compound]")
"0.596 µM"
>>> value_measured("CNC(=O)[C@H]1O[C@@H](n2cnc3c(NCc4cccc(S(=O)(=O)O)c4)ncnc32)[C@H](O)[C@@H]1O")
"> 10 µM"
>>> value_measured("CN(Cc1ccccc1)c1ncnc2c1ncn2[C@@H]1O[C@H](CO)[C@@H](O)[C@H]1O [Compound 30, N^6 -benzyl-N^6 -methyladenosine, reference compound]")
"40.1 µM"
>>> value_measured("CCCCn1c(=O)c2c(ncn2[C@@H]2O[C@H](CO)[C@@H](O)[C@H]2O)n(Cc2ccccc2)c1=O")
"4.51 µM"
>>> value_measured("Nc1nccc2c1ncn2[C@@H]1O[C@H](CO)[C@@H](O)[C@H]1O [Compound 32, 3-deazaadenosine, reference compound]")
"59.8 µM"
>>> value_measured("CCCCn1c(=O)c2c(ncn2[C@@H]2O[C@H](C(=O)NCC)[C@@H](O)[C@H]2O)n(CCCC)c1=O")
"17 µM"
>>> value_measured("CCCn1c(=S)[nH]c(=O)c2[nH]cnc21 [Compound 114, 2-thio-3-propylX, reference compound]")
"32.5 µM"
>>> value_measured("OC[C@H]1O[C@@H](n2cnc3c(O)ncnc32)[C@H](O)[C@@H]1O [Compound 85, inosine, reference compound]")
"50 µM"
>>> value_measured("CCCCn1c(=O)n(Cc2ccccc2)c(=O)c2c1ncn2[C@@H]1O[C@H](CO)[C@@H](O)[C@H]1O")
"3.8 µM"
